Target: histamine H3 receptor (H3R) (Rattus norvegicus)
Construct: gene Hrh3; long isoform H3(445)R, C-terminal RLuc / YFP fusions
Sequence (Q9QYN8 whole entry, the tested form may be a part, canonical isoform): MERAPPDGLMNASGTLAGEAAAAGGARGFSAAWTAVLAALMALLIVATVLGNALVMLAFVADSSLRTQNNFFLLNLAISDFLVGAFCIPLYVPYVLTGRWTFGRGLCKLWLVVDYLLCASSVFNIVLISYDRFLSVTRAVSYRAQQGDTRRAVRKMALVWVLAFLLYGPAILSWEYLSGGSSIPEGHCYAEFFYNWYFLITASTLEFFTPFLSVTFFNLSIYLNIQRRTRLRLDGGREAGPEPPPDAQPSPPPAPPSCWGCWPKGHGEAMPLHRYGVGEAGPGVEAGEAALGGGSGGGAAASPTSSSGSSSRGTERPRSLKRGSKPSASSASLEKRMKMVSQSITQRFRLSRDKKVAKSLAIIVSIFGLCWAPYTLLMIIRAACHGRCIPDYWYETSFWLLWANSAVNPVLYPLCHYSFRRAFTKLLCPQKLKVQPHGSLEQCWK
Assay: BRET between H3R-RLuc and H3R-YFP in HEK […] cells; also […]GTPγS binding (inverse agonist)
Assay type: cell-based
pEC50: −log10 of the molar value.
assay.endpoint: pEC50

compound="S=C(NC1CCCCC1)N1CCC(c2cnc[nH]2)CC1 [thioperamide]" observed_value=8.70
